molecular target: T1, recombinant human IL-6 (human, UniProt P05231 30-212, limits assumed); experiment: competition ELISA, rhIL-6 in solution against captured IL-6
T1 construct: also called rhIL6; human recombinant IL-6
Listing: IC50 of selected binders
Give the value, in units of nM, as a plain number.

binder | propertyName | readoutNumber
mAb 246 (antibody, V domains shown) VH: QVTLKESGPTLVKPTQTLTLTCTFSGFSLSTSGVAVGWIRQPPGKALEWLALIFWDDDKHYSPSLKSRLTITKDTSKNQVVLTMTNMDPVDTATYYCARSYDDYLYYALDYWGQGTLVTVSS VL: EIVLTQSPGTLSLSPGERATLSCRASQTIDSSYLAWYQQKPGQAPRLLVYGASSRATGIPDRFSDSGSGTDFTLTISRLEPEDFAVYYCQQYAKSPITFGQGTKLE | IC50 | 5.5

Exam item: Fill in: IC50 of mAb 992 (antibody, V domains shown) VH: QVTLKESGPTLVKPTQTLTLTCSFSGFSLSTSGVGVGWVRQPPGKALEWLAFIFWDDDKYYSPSLESRLTITKDTSKNQVVLTMTNMDPVDTATYYCARSYDDYLYYALDTWGQGTLVT VL: DIQMTQSPSSLSAFVGDGVTMTCWASQSINDYLNWYHQRPGEAPELLVFAASNLQIGVPSRFRGSGSETYFTLTINSLQPEDSGTYFCQNGHSFPLTFGGGTKLEI is ___
Marked response: 0.065

Exam item: Fill in: IC50 of mAb 88 (chimeric B-E8 control antibody) (antibody, V domains shown, Biotinylated in FIG. 16., Chimeric form of murine B-E8; also called control mAb 88) VH: QVTLKESGPGILKPSQTLSLTCSFSGFSLSTSGMGVGWIRQPSGKGLEWLAHIWWDDDKYYNPSLKSQLTISKDTSRNQVFLKITSVDTADTATYYCARSYDDYLYYALDYWGQGTSVTVSS VL: DIVMTQSPATLSVTPGDRVSLSCRASQSISDYLHWYQQKSHESPRLLIKSVSQSISGIPSRFSGSGSGSDFTLSINSVEPEDVGVYYCQNGHSFPLTFGAGTKLELK is ___
Marked response: 0.5
